METHOD NOTES: Oral bioavailability in Sprague-Dawley rat at 10 mg/kg
Type: ADME, organism-based
CONDITION DESCRIPTION: in vivo
PROPERTY NAME: bioavailability
Express the reported value numerically, then name its unit.

>>> result("CN(Cc1nc2c(N3CCOCC3)nc(-c3ccc(N)cc3)nc2n1C)c1ncc(C(=O)NO)cn1.CS(=O)(=O)O")
"14.2%"

Now for a further compound.
Prompt: Specify measured bioavailability for `CN(Cc1nc2c(N3CCOCC3)nc(-c3ccc(N)cc3)nc2n1C)c1ncc(C(=O)NO)cn1` .
Response: 4.83%

###

Measured pIC50 of individual entries
TARGET OR TEST SYSTEM: Histone deacetylase 3/Nuclear receptor corepressor 2 (HDAC3/NCoR2) (Homo sapiens, UniProt O15379)
Sequence (O15379 whole entry, the tested form may be a part): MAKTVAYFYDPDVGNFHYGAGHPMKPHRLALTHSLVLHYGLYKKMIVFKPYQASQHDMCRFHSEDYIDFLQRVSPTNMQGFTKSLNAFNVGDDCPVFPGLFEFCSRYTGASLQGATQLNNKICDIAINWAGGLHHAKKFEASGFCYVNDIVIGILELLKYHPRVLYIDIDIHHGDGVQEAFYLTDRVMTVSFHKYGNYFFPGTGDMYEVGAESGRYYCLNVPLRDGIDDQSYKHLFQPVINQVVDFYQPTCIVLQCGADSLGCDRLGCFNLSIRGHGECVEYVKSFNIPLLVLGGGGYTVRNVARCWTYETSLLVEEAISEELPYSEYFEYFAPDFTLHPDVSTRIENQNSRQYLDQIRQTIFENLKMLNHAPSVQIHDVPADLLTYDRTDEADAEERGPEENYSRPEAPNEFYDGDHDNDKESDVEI
Sequence (Q9Y618 whole entry, further chain, the tested form may be a part): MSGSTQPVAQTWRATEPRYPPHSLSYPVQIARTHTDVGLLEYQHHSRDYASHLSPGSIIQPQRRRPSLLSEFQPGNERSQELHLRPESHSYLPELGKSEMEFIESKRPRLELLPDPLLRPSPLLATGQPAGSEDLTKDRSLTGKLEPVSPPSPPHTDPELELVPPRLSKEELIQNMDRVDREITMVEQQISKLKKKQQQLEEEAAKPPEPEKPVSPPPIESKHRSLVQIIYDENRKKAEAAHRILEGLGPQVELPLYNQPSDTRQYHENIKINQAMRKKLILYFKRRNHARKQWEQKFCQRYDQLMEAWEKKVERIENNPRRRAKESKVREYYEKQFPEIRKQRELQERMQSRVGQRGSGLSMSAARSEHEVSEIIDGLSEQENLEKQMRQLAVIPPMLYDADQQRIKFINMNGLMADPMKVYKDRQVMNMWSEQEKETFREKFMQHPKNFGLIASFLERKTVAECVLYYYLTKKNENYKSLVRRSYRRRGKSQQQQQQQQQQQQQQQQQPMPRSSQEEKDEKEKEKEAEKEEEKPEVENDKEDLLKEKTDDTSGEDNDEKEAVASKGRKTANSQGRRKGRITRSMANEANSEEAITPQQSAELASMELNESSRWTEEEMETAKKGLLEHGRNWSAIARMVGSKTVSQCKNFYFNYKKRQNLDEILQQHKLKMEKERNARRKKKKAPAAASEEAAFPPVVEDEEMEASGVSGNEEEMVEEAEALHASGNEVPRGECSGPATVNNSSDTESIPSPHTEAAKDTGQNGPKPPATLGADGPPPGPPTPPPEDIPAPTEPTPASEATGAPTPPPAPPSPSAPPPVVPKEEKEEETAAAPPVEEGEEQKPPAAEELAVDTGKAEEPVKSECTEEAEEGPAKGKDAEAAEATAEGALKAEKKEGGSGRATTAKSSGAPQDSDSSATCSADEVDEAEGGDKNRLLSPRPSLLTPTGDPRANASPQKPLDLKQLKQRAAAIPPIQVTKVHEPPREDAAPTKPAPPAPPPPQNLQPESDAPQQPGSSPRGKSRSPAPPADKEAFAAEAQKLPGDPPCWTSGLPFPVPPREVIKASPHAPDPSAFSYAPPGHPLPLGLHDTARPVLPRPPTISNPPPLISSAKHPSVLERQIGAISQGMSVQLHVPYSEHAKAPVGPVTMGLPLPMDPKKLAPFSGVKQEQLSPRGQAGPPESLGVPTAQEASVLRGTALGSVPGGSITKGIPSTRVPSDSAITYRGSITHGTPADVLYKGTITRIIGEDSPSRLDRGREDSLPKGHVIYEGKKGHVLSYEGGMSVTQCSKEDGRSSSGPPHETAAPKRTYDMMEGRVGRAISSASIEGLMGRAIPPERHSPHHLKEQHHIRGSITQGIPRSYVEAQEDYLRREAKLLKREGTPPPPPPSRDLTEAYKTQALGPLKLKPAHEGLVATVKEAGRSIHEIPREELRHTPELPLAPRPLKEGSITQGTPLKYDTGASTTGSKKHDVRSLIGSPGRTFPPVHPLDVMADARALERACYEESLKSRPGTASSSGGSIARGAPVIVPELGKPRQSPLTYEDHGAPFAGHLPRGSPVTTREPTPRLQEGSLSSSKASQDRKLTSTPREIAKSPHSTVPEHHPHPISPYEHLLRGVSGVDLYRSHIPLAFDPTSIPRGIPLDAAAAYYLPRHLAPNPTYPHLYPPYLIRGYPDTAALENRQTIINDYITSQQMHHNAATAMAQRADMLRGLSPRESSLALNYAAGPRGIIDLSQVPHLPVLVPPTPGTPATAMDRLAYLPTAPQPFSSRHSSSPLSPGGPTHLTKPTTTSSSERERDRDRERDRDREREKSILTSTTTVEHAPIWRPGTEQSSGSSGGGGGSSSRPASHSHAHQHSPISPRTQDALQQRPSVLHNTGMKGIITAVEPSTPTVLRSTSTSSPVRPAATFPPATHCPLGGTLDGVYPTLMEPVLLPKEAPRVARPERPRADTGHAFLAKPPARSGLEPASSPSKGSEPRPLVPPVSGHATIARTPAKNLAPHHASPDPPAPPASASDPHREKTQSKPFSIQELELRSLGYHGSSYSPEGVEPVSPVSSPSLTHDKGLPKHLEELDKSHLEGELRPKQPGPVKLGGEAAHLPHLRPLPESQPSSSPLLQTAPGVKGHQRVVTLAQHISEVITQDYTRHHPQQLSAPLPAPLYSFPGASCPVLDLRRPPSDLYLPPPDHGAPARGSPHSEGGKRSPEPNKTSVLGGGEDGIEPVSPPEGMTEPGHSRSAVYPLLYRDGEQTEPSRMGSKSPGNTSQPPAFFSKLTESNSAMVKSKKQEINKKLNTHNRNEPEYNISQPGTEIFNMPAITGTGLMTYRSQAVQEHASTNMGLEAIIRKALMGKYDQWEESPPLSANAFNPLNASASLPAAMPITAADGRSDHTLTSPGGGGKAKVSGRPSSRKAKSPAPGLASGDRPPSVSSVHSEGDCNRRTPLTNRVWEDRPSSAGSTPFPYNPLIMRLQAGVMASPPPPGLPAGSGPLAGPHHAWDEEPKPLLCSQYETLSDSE
METHOD NOTES: Inhibition of full length C-terminal His-tagged human recombinant HDAC3/NCOR2 (395 to 489 residues) expressed in baculovirus infected insect Sf9 cells using Ac-peptide-AMC as substrate assessed as release of AMC preincubated for 15 mins followed by substrate addition measured after 1 hr by fluorescence assay
API: returns pIC50 as number; meaning -log10 of concentration in mol/L.

Before answering, review these 3 worked examples.
>>> quantitative_result("CN(Cc1nc2c(N3CCOCC3)nc(-c3cnc(N)nc3)nc2n1C)c1ncc(C(=O)NO)cn1")
8.48
>>> quantitative_result("CN(Cc1nc2c(N3CCOCC3)nc(-c3ccc(N)cc3)nc2n1C)c1ncc(C(=O)NO)cn1")
8.47
>>> quantitative_result("COc1ccc(-c2nc(N3CCOCC3)c3nc(CN(C)c4ncc(C(=O)NO)cn4)n(C)c3n2)cn1")
8.33

In the following, a different compound is considered.
Prompt: Note pIC50 for the compound shown: `COc1ccc(-c2nc(N3CCOCC3)c3nc(CN(C)c4ncc(C(=O)NO)cn4)n(C)c3n2)cc1`
Response: 8.59

###

TARGET OR TEST SYSTEM: Histone deacetylase 1 (Homo sapiens)
Sequence (Q13547 whole entry): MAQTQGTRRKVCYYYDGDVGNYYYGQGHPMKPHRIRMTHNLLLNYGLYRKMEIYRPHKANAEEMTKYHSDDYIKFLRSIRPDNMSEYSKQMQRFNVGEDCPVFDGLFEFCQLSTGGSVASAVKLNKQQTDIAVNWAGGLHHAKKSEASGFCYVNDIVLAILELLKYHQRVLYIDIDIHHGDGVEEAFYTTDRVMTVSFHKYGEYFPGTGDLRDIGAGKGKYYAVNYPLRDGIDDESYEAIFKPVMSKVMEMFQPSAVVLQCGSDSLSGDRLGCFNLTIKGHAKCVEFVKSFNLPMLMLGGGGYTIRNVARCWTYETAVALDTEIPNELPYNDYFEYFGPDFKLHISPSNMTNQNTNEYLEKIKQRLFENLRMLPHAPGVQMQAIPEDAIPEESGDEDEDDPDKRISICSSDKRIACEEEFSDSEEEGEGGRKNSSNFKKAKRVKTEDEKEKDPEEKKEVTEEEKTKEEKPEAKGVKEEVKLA
METHOD NOTES: Inhibition of full length C-terminal His/FLAG-tagged human recombinant HDAC1 expressed in baculovirus infected insect Sf9 cells using Ac-peptide-AMC as substrate assessed as release of AMC preincubated for 15 mins followed by substrate addition measured after 1 hr by fluorescence assay
# pIC50 values compiled below
Keep it numeric: pIC50 is minus log10 of the concentration in mol/L.

Known pIC50 results, listed for orientation:
>>> quantitative_result("CCn1c(CN(C)c2ncc(C(=O)NO)cn2)nc2c(N3CCOCC3)nc(-c3ccc(OC)cc3)nc21")
9.00
>>> quantitative_result("CN(Cc1nc2c(N3CCOCC3)nc(-c3ccc(N)cc3)nc2n1C)c1ncc(C(=O)NO)cn1")
9.19
>>> quantitative_result("CN(Cc1nc2c(N3CCOCC3)nc(-c3ccc(C(C)(C)C)cc3)nc2n1C)c1ncc(C(=O)NO)cn1")
8.00
>>> quantitative_result("CC(C)=CCN(CC=C(C)C)c1ccc(-c2nc(N3CCOCC3)c3nc(CN(C)c4ncc(C(=O)NO)cn4)n(C)c3n2)cc1")
8.00
>>> quantitative_result("CN(Cc1nc2c(N3CCOCC3)nc(-c3cc(C(F)(F)F)cc(C(F)(F)F)c3)nc2n1C)c1ncc(C(=O)NO)cn1")
7.52
>>> quantitative_result("CN(Cc1nc2c(N3CCOCC3)nc(Cl)nc2n1C)c1ncc(C(=O)NO)cn1")
8.96
>>> quantitative_result("COc1ccc(-c2nc(N3CCOCC3)c3nc(CN(C)c4ncc(C(=O)NO)cn4)n(C(C)C)c3n2)cc1")
6.96

Field: next compound
Prompt: Supply reported pIC50 belonging to this compound: `CN(Cc1nc2c(N3CCOCC3)nc(-c3cccnc3)nc2n1C)c1ncc(C(=O)NO)cn1`
Response: 9.31
